Values were extracted from patent US20250250357A1.

# Subject of test: T1, human MSLN-R3-his protein (human, UniProt Q13421 487-598)
# T1 construct: Region 3 of human mesothelin, made in HEK293E cells, His-tagged; also called human MSLN-R3 protein; hMSLN-R3-his; not shown: His tag
# Assay text: ELISA on coated MSLN-R3; antibody 1 nM
Quantity measured: OD450 (OD450)
Give bare numbers, in OD450.

Record OD450 per entry; entries follow.
1. S009-F8-24.14 (antibody, human IgG1, kappa, V domains shown) VH: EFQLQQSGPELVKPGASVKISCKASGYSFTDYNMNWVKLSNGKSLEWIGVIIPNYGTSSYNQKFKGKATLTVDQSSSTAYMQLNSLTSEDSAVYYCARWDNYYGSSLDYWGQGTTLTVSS VL: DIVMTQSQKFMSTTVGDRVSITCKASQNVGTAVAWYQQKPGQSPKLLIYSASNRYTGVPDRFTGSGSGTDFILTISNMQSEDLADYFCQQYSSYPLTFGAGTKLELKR
2. S009-F8-9.16 (antibody, human IgG1, kappa, V domains shown) VH: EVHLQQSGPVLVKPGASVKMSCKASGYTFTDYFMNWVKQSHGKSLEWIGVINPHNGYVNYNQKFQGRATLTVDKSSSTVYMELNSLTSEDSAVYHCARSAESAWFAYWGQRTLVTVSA VL: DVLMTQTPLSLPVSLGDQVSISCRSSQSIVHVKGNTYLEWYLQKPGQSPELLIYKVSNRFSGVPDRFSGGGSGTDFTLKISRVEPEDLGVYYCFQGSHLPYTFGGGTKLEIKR
3. S009-F8-28.23 (antibody, human IgG1, kappa, V domains shown) VH: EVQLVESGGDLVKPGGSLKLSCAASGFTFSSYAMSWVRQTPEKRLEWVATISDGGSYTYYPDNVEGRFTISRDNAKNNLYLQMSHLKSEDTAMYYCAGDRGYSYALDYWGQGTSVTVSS VL: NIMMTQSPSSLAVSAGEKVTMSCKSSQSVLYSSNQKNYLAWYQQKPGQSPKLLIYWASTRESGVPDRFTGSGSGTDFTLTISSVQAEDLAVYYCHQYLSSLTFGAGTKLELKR

Response line:
1: 0.04; 2: 2.23; 3: 0.04
